Target: FGFR3 (Homo sapiens, UniProt P22607)
Construct: purchased Invitrogen PV3145
Sequence (P22607 23-806): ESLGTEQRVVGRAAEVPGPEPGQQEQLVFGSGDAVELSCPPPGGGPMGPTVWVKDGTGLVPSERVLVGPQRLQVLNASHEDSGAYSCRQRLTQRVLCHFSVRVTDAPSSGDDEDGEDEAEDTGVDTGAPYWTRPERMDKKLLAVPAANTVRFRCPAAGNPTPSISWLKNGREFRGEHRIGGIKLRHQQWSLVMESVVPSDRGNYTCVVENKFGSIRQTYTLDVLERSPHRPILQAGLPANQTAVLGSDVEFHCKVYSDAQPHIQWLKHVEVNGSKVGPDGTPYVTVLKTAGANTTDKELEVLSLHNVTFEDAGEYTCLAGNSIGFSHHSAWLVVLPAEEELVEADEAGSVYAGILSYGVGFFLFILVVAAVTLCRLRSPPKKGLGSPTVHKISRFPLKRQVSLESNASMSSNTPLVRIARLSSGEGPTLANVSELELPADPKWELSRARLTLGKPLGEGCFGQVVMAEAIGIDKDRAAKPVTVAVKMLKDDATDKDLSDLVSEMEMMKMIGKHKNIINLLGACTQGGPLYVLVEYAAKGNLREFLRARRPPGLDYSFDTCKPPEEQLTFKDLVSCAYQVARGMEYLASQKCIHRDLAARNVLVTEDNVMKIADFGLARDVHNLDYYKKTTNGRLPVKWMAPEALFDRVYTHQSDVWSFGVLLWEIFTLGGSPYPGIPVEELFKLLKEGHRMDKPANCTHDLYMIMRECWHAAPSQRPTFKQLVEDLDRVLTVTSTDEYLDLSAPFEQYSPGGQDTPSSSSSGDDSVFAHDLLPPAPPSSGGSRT
Assay: 33P isotope-labeled kinase activity test (Reaction Biology Corp), wild-type FGFR3
Format: biochemical
Conditions: ratio of IC50 FGFR1 to IC50 FGFR3
Where a name gives a salt, the structure may show the parent alone.
readout: Selectivity FGFR1/3

COCCN1CCC(n2cc(-c3cnc(N)c(-c4cn(C)c(=O)c(-c5cc(OC)cc(OC)c5)n4)n3)c(C)n2)CC1 : 5.81
COc1cc(OC)cc(-c2nc(-c3nc(-c4cnn(C5CCN(C)CC5)c4C)cnc3N)cn(C)c2=O)c1 [Trifluoroacetate salt of 0031] : 6.57
COc1cc(OC)cc(-c2nc(-c3nc(-c4cn(C5CCN(C)CC5)nc4C)cnc3N)cn(C)c2=O)c1 [Trifluoroacetate salt of 0016] : 5.92
COc1cc(OC)cc(-c2nc(-c3nc(-c4ccc(C5CCN(C)CC5)nc4)cnc3N)cn(C)c2=O)c1 [Hydrochloride salt of 0036] : 7.28

a: COc1cc(OC)cc(-c2nc(-c3nc(-c4cnn(CC(O)CC(F)(F)F)c4C)cnc3N)cn(C)c2=O)c1 (single isomer, unassigned) [compound 0065]
b: COc1cc(OC)cc(-c2nc(-c3nc(-c4cn(C5CCNCC5)nc4C)cnc3N)cn(C)c2=O)c1
Query: a or b : whose Selectivity FGFR1/3 is greater? Write the label of whichever entry you select.
Result: a
(a: 9.01, b: 5.12)

Numbers sourced from patent US11286248B2.
